- target-under-test: KAT7+JADE1+EAF6+ING5 4 protein complex (Homo sapiens (Human))
- experiment: KAT7 JADE1 assay (SAMDI-MS acetylation of H3 1-21 peptide)
- Assay type: biochemical
- reported-conditions: Morrison equation fit; replicate number in parentheses; read-out: KAT7 JADE1 Ki (nM) (replicate number)

- molecule: "COc1cc2c(NS(=O)(=O)c3c(OC)cc(C4CCCN([C@@H]5CCOC5)C4)cc3OC)noc2cc1Nc1cc(C2CC2)n[nH]1 (single isomer, unassigned) [Example 158]"
  Ki [nM]: 8.7
- molecule: "CCN1CCCCC1c1cc(OC)c(S(=O)(=O)Nc2noc3cc(Nc4cc(C5CC5)n[nH]4)c(OC)cc23)c(OC)c1 (single isomer, unassigned) [Example 173]"
  Ki [nM]: 114
- molecule: "COc1cc2c(NS(=O)(=O)c3c(OC)cc([C@@H]4CCCO4)cc3OC)noc2cc1Nc1cc(C2CC2)n[nH]1"
  Ki [nM]: 11.4
